- Test system: FLK-1 receptor
- Experimental protocol: FLK-1 Assay (cellular/catalytic ELISA, VEGF-stimulated phosphotyrosine)
- Format: cell-based
- Parameters: concentration or dose not given beside the values

| Compound | Subject of test | Flk Kinase % Inhibition (P.110) (%) |
| --- | --- | --- |
| COc1ccc(C=C2C(=O)Nc3c(Br)cc(Br)c(C)c32)c(OC)c1OC | FLK-1 receptor | 21.2 |
| Cc1c(Br)cc(Br)c2c1C(=Cc1cccc(Oc3ccccc3)c1)C(=O)N2 | FLK-1 receptor | 11.0 |
| CCc1ccc(C=C2C(=O)Nc3ccc(S(=O)(=O)Nc4ccc(C(F)(F)F)cc4)cc32)cc1 | FLK-1 receptor | 14.1 |

====

- Tested on: FLK-1 receptor
- Experimental protocol: FLK-1 Assay (cellular/catalytic ELISA, VEGF-stimulated phosphotyrosine)
- Assay type: cell-based
- Set-up: concentration or dose not given beside the values
Assign true to entries whose Flk Kinase % Inhibition (P.110) meets or exceeds 10%; assign false to the rest.

| Compound | Discrete label |
| --- | --- |
| O=C1Nc2ccc(CCCl)cc2C1=Cc1ccc([N+](=O)[O-])cc1 | true |
| COc1ccc(C=C2C(=O)Nc3c(Br)cc(Br)c(C)c32)cc1OC | false |
| COc1cccc(C=C2C(=O)Nc3ccc(S(=O)(=O)N4CCOCC4)cc32)c1 | false |
| O=C1Nc2ccc(S(=O)(=O)Nc3ccc(C(F)(F)F)cc3)cc2C1=Cc1ccc(-c2ccccc2)cc1 | true |
| COc1c([N+](=O)[O-])cc(C=C2C(=O)Nc3c(Br)cc(Br)c(C)c32)cc1C(C)(C)C | true |
| CCc1ccc(C=C2C(=O)Nc3c(Br)cc(Br)c(C)c32)s1 | true |
| Cc1c(Br)cc(Br)c2c1C(=Cc1cc(C(C)C)c(Oc3ccccc3)c(C(C)C)c1)C(=O)N2 | false |
| Cc1c(Br)ccc2c1C(=Cc1cc(Cl)ccc1O)C(=O)N2 | false |
| O=C1Nc2ccc(CCCl)cc2C1=Cc1cc(Cl)ccc1O | false |
| CCN(CC)c1ccc(C=C2C(=O)Nc3ccc(S(=O)(=O)NC)cc32)c(O)c1 | false |
| O=C1Nc2ccc(S(=O)(=O)N3CCOCC3)cc2C1=Cc1cccc(F)c1O | false |
| Cc1c(Br)cc(Br)c2c1C(=Cc1ccccc1C#N)C(=O)N2 | true |
| O=C1Nc2c(Br)cc(Br)cc2C1=Cc1ccc(Cl)cc1 | false |
| O=C1Nc2c(Br)cc(Br)cc2C1=Cc1ccccc1Cl | false |
| O=C1Nc2ccc(CCCl)cc2C1=Cc1cc(F)cc(F)c1 | true |
| Cc1c(Br)cc(Br)c2c1C(=Cc1cc(O)ccc1O)C(=O)N2 | false |
| O=C1Nc2ccc(S(=O)(=O)Nc3ccc(C(F)(F)F)cc3)cc2C1=Cc1ccc(Br)s1 | true |
| Cc1cc(C=C2C(=O)Nc3c(Br)cc(Br)c(C)c32)sc1C | false |
| CNS(=O)(=O)c1ccc2c(c1)C(=Cc1ccccc1F)C(=O)N2 | true |
| O=C1Nc2ccc(I)cc2C1=Cc1cc(F)cc(F)c1 | false |

====

- Subject of test: EGFR (Homo sapiens)
- Construct: endogenous in cells; host or cells: A431 cells (lysate, captured with SUMO1 anti-EGFR antibody)
- Sequence (P00533 25-1210): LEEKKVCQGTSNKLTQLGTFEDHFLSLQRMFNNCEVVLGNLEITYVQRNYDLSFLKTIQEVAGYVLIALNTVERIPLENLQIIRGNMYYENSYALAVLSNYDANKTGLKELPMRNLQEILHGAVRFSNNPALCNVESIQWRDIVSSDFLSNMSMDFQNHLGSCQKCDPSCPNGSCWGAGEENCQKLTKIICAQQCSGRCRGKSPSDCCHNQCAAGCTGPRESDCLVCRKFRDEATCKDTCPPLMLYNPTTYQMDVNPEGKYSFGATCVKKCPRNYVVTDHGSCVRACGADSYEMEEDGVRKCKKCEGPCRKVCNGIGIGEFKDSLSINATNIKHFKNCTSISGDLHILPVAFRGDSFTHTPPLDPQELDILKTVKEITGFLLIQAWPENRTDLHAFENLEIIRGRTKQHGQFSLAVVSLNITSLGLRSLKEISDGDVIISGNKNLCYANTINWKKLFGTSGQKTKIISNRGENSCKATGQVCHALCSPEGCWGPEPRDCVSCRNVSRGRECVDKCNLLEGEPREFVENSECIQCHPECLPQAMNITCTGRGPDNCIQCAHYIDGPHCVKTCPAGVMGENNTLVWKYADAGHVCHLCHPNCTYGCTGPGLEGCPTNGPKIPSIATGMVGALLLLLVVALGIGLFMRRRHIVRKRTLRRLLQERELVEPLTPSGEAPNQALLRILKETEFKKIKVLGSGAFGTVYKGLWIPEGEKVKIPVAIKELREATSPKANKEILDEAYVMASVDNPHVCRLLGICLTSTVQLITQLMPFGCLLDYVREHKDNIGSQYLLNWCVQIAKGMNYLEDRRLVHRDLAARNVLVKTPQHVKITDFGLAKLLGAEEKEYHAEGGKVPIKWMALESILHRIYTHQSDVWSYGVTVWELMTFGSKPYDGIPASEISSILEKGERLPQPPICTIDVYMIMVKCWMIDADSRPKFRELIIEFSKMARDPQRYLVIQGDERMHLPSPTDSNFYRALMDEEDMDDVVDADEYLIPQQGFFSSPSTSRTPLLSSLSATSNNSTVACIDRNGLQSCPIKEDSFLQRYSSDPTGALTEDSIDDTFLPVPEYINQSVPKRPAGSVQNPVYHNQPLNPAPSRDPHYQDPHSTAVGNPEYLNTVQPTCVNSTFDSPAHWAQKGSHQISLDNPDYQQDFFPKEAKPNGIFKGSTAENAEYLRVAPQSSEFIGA
- Experimental protocol: Biochemical EGFR Assay
- Parameters: concentration or dose not given beside the values
- Settings: protocol P.167
The following compounds are listed with their measured Biochem EGFR % Inhibition (P.167) values.
Recorded endpoint: Biochem EGFR % Inhibition (P.167) (%)

| Compound | Recorded endpoint | Recorded result |
| --- | --- | --- |
| Cc1c(Br)cc(Br)c2c1C(=Cc1cnc3ccccc3c1)C(=O)N2 | Biochem EGFR % Inhibition (P.167) | −9.1 |
| O=C1Nc2ccc(S(=O)(=O)Nc3ccc(C(F)(F)F)cc3)cc2C1=Cc1cc(O)cc(O)c1 | Biochem EGFR % Inhibition (P.167) | 57.1 |
| O=C1Nc2ccc(S(=O)(=O)N3CCOCC3)cc2C1=Cc1cccc(O)c1O | Biochem EGFR % Inhibition (P.167) | −19.5 |
| O=C1Nc2ccc(S(=O)(=O)Nc3ccc(C(F)(F)F)cc3)cc2C1=Cc1ccc2ccccc2n1 | Biochem EGFR % Inhibition (P.167) | 0.0 |
| CCOc1ccc(C=C2C(=O)Nc3c(Br)cc(Br)cc32)cc1 | Biochem EGFR % Inhibition (P.167) | 37.3 |
| O=C1Nc2ccc(S(=O)(=O)N3CCOCC3)cc2C1=Cc1ccoc1 | Biochem EGFR % Inhibition (P.167) | −16.8 |
| Cc1c(Br)ccc2c1C(=Cc1ccc(OCCCN(C)C)cc1)C(=O)N2 | Biochem EGFR % Inhibition (P.167) | −2.7 |
| O=C1Nc2c(Br)cc(Br)cc2C1=Cc1cccc(O)c1O | Biochem EGFR % Inhibition (P.167) | 54.9 |
| COc1ccc(C=C2C(=O)Nc3c(Br)cc(Br)c(C)c32)cc1F | Biochem EGFR % Inhibition (P.167) | −31.0 |
| O=C1Nc2ccc(I)cc2C1=Cc1ccc(CO)o1 | Biochem EGFR % Inhibition (P.167) | −4.2 |
